# system: Recombinant human HMGB1 (Homo sapiens)
# Construct: made in house; host or cells: E. coli BL21 (DE3) pLysS
# Sequence (P09429 whole entry): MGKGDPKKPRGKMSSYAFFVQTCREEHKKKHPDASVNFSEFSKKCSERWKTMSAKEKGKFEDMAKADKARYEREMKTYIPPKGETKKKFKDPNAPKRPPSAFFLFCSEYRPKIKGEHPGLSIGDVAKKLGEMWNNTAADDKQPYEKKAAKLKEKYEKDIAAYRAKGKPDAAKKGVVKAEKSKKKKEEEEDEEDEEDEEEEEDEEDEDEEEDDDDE
# measurement_notes: SPR (OpenSPR) binding to immobilized HMGB1
# reported_conditions: immobilized HMGB1, HBS-P buffer; Fig. 5A; Mean ± SEM, n = 2 independent experiments
assay_readout: pKd
Please keep in mind that pKd is minus log10 of the molar concentration; only the number is needed.

According to the records, this substance 54-TKVH(Nle)KSFLAFQTKT-69 [P2–1, water-soluble derivative of TN peptide P2 with Met to Norleucine and Cys to Ser substitutions] displays pKd of 7.62
